Target: T1, L-selectin on PBMC / lymphocytes (Homo sapiens, UniProt P14151 P14151:39-372)
T1 sequence: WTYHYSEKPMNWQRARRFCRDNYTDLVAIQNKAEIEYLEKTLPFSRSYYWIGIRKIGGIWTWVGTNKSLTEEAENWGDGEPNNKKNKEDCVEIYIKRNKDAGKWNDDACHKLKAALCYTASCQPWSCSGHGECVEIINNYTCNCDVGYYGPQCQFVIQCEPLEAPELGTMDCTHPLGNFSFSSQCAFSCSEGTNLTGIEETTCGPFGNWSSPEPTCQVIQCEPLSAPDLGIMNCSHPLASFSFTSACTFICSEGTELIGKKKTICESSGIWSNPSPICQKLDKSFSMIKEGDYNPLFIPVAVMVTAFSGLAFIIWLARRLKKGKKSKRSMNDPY
Assay: flow; half-saturation; described as LD201T4 dumbell dimer
Conditions: label: fluorescein
metric-name: EC50 (pM)
Form entry: value (pM) — number only.

Exercise: Looking for the measured EC50 of TCCAGTACAAGGTGCTAAACGTAATGGTT (ssDNA, two copies on PEG 3400, 5' amino C6 dT, 3'-3' terminal [1 = 5' amino modifier C6 dT; 29 = 3'-3' terminal dT; two identical copies on PEG 3400 (PEG left out)]) [NX303 dumbell dimer] , can you help?
Solution: 100
